- Test system: Botulinum neurotoxin type F light chain protease (Clostridium botulinum)
- Assay info: inhibition of botulinum toxin F protease cleavage – biochemical, multiplex microsphere, Powder Set 03, dose response (AID 720671)
- Test parameters: multiplex microsphere protease cleavage assay, BoNT/F LC
Active and inactive are the calls of the source. No rule for the calls is given here.
Labels: active, inactive

Molecule: COC(=O)Nc1ccc2nc(-c3cccs3)c(-c3cccs3)nc2c1
Class: inactive
//
Molecule: O=C(Nc1ccc2nc(-c3ccccc3)c(-c3ccccc3)nc2c1)C1CCCC1
Class: inactive
//
Molecule: CCCCOC(=O)Nc1ccc2nc(-c3ccccc3)c(-c3ccccc3)nc2c1
Class: inactive
//
Molecule: Fc1ccc(-c2nc3nc(-c4cccc(F)c4)cn3nc2-c2ccc(F)cc2)cc1
Class: active
//
Molecule: CC(C)NC(=O)Nc1ccc2nc(-c3ccccc3)c(-c3ccccc3)nc2c1
Class: inactive
//
Molecule: Cc1ccc(-c2nc3nc(-c4cccc(F)c4)cn3nc2-c2ccc(C)cc2)cc1
Class: inactive
//
Molecule: CCNC(=S)Nc1ccc2nc(-c3ccccc3)c(-c3ccccc3)nc2c1
Class: inactive
//
Molecule: O=C(Nc1ccc2nc(-c3cccs3)c(-c3cccs3)nc2c1)C1CC1
Class: inactive
//
Molecule: Cc1ccc(-c2nc3nc(-c4ccc(S(C)(=O)=O)cc4)cn3nc2-c2ccc(C)cc2)cc1
Class: inactive
//
Molecule: Clc1ccc(-c2cn3nc(-c4ccccc4)c(-c4ccccc4)nc3n2)c(Cl)c1
Class: inactive
//
Molecule: CCNC(=O)Nc1ccc2nc(-c3cccs3)c(-c3cccs3)nc2c1
Class: inactive
//
Molecule: COc1cccc(-c2cn3nc(-c4ccc(F)cc4)c(-c4ccc(F)cc4)nc3n2)c1
Class: active
//
Molecule: CCCS(=O)(=O)Nc1ccc2nc(-c3ccccc3)c(-c3ccccc3)nc2c1
Class: inactive
//
Molecule: COc1ccc(-c2cn3nc(-c4ccc(C)cc4)c(-c4ccc(C)cc4)nc3n2)cc1
Class: inactive
//
Molecule: CC(C)(C)NC(=O)Nc1ccc2nc(-c3ccccc3)c(-c3ccccc3)nc2c1
Class: inactive
//
Molecule: Fc1ccc(-c2cn3nc(-c4ccccc4)c(-c4ccccc4)nc3n2)cc1
Class: inactive
//
Molecule: O=C(Nc1ccc2nc(-c3ccccc3)c(-c3ccccc3)nc2c1)NC1CCCC1
Class: inactive
//
Molecule: COc1ccc(-c2nc3nc(-c4ccc(C)cc4)cn3nc2-c2ccc(OC)cc2)cc1
Class: inactive
//
Molecule: COc1cccc(-c2cn3nc(-c4ccccc4)c(-c4ccccc4)nc3n2)c1
Class: inactive
//
Molecule: COc1ccc(-c2cn3nc(-c4ccccc4)c(-c4ccccc4)nc3n2)c(OC)c1
Class: inactive
//
Molecule: CCCOC(=O)Nc1ccc2nc(-c3ccccc3)c(-c3ccccc3)nc2c1
Class: inactive
//
Molecule: Cc1ccc(-c2nc3nc(-c4ccc(C#N)cc4)cn3nc2-c2ccc(C)cc2)cc1
Class: active
//
Molecule: O=S(=O)(Nc1ccc2nc(-c3ccccc3)c(-c3ccccc3)nc2c1)C1CC1
Class: inactive
//
Molecule: O=C(Nc1ccc2nc(-c3cccs3)c(-c3cccs3)nc2c1)OCc1ccccc1
Class: inactive
//
Molecule: O=C(Nc1ccc2nc(-c3ccccc3)c(-c3ccccc3)nc2c1)C1CC1
Class: inactive
//
Molecule: FC(F)(F)Oc1ccc(-c2cn3nc(-c4ccccc4)c(-c4ccccc4)nc3n2)cc1
Class: inactive
//
Molecule: O=C(Nc1ccc2nc(-c3cccs3)c(-c3cccs3)nc2c1)C1CCC1
Class: inactive
//
Molecule: CC(Oc1ccccc1)C(=O)Nc1ccc2nc(-c3ccccc3)c(-c3ccccc3)nc2c1 (stereo not given)
Class: inactive
//
Molecule: CC(C)OC(=O)Nc1ccc2nc(-c3ccccc3)c(-c3ccccc3)nc2c1
Class: inactive
//
Molecule: COc1ccc(-c2nc3nc(-c4cccc(F)c4)cn3nc2-c2ccc(OC)cc2)cc1
Class: active
//
Molecule: CCCNC(=O)Nc1ccc2nc(-c3ccccc3)c(-c3ccccc3)nc2c1
Class: inactive
//
Molecule: COc1ccccc1-c1cn2nc(-c3ccc(C)cc3)c(-c3ccc(C)cc3)nc2n1
Class: inactive
//
Molecule: Cc1ccc(-c2cn3nc(-c4ccc(F)cc4)c(-c4ccc(F)cc4)nc3n2)cc1
Class: inactive
//
Molecule: O=C(Nc1ccc2nc(-c3ccccc3)c(-c3ccccc3)nc2c1)C1CCCCC1
Class: inactive
//
Molecule: COc1ccccc1-c1cn2nc(-c3ccccc3)c(-c3ccccc3)nc2n1
Class: inactive
//
Molecule: Cc1ccc(-c2nc3nc(-c4ccc(F)cc4)cn3nc2-c2ccc(C)cc2)cc1
Class: inactive
//
Molecule: COc1ccc(-c2cn3nc(-c4ccc(F)cc4)c(-c4ccc(F)cc4)nc3n2)c(OC)c1
Class: active
//
Molecule: O=C(Nc1ccc2nc(-c3cccs3)c(-c3cccs3)nc2c1)NC1CCCC1
Class: inactive
//
Molecule: COc1ccc(-c2nc3nc(-c4ccc(OC(F)(F)F)cc4)cn3nc2-c2ccc(OC)cc2)cc1
Class: inactive
//
Molecule: CCCCOC(=O)Nc1ccc2nc(-c3cccs3)c(-c3cccs3)nc2c1
Class: inactive

The measured values listed here are drawn from PubChem BioAssay AID720671.
